scaled lipid accumulation score values for the molecules below.
- Test system: primary human hepatic stellate cells (donor 1)
- test: scaled lipid accumulation score (0 = DMSO-like, 1 = nortriptyline-like); higher = stronger HSC inactivation (lipid re-accumulation), active = hit call of the paper
- condition_context: library stock concentration: 1 mM; 48 h
The campaign covered roughly 5,800 compounds. About 620 (11%) showed activity. The full list was thinned out, with actives kept by preference.

{"columns": ["molecule", "experimental_target", "scaled lipid accumulation score"],
 "data": [
  ["O=C1C[C@@H]2[C@@H](/C=C/[C@@H](O)COc3cccc(C(F)(F)F)c3)[C@H](O)C[C@@H]2O1 [Fluprostenol Lactone Diol]", "primary human hepatic stellate cells (donor 1)", "0.003 (inactive)"],
  ["CC(C)Oc1ccc(C(=O)c2ccc(NC3=NCCN3)cc2)cc1", "primary human hepatic stellate cells (donor 1)", "0.073 (inactive)"],
  ["C=C1CCC(O)C/C1=C\\C=C1\\CCCC2(C)C1CCC2C(C)CCC(O)C(C)(C)O (centres undefined) [24,25-Dihydroxyvitamin D3]", "primary human hepatic stellate cells (donor 1)", "0.016 (inactive)"]
]}

IN: State recorded scaled lipid accumulation score with primary human hepatic stellate cells (donor 1), entry CCCCCCCCCCCCCCCC(=O)NC[C@@H](C)O [R-Palmitoyl-(2-methyl) Ethanolamide] , no comment.
OUT: ≤ 0 (inactive)
